- Target of assay: T1, human IL-4Rα (human, UniProt P24394 26-232)
- T1 construct: also called Hu IL-4Rα; hIL-4Rα
- T1 sequence: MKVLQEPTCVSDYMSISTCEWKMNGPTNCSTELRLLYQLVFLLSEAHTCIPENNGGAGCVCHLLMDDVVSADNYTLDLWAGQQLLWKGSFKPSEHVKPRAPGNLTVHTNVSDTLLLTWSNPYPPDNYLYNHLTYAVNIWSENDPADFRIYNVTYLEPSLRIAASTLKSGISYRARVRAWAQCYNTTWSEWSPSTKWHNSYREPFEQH
- Assay protocol: SPR, Carterra LSA;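 also: antibodies captured on an anti-human Fc sensor chip, antigen injected at several concentrations, association and dissociation rates fitted with a 1:1 Langmuir model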
Please use criterion met for KD Relative to Dupilumab under 1 and criterion not met for everything else, ties included.

Binder	Label
Construct 46 (mAb501) (antibody, IgG4, V domains shown, VH/VL only) VH: EVQLVESGGGLEQPGGSLRLSCAGSGFTFRDSAMTWVRQAPGKGLEWVSSISGSGDGTYYADSVKGRFTISRDNSKNTLYLQMNSLRAEDTAVYYCAKDRLSIYIRPRYYGLDVWGQGTTVTVSS VL: DIVMTQSPLSLPVTPGEPASISCTSSQSLLYSIGYNYVDWYLQKSGQSPQLLIYLGNKRASGVPDRFSGSGSGTDFTLKISRVEAEDVGFYYCMQALQTPYTFGQGTKLEIK	criterion met
Construct 25 (mAb433) (antibody, IgG4, V domains shown, VH/VL only) VH: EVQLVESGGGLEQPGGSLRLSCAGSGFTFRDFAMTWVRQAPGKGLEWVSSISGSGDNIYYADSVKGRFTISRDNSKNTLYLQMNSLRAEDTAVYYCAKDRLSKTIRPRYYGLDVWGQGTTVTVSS VL: DIVMTQSPLSLPVTPGEPASISCTASQSLLYSIGYNYLDWYLQKSGQSPQLLIYEGNKRASGVPDRFSGSGSGTDFTLKISRVEAEDVGFYYCMQSLTSPYTFGQGTKLEIK	criterion met
Construct 11 (mAb420) (antibody, IgG4, V domains shown, VH/VL only) VH: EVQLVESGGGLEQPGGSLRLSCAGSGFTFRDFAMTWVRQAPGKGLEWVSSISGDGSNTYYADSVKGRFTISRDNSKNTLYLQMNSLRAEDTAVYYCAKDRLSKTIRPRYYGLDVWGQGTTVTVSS VL: DIVMTQSPLSLPVTPGEPASISCRSSQSVLYSIGYNYVDWYLQKSGQSPQLLIYLGNKRASGVPDRFSGSGSGTDFTLKISRVEAEDVGFYYCMQSLQTPYTFGQGTKLEIK	criterion not met
Construct 22 (mAb430) (antibody, IgG4, V domains shown, VH/VL only) VH: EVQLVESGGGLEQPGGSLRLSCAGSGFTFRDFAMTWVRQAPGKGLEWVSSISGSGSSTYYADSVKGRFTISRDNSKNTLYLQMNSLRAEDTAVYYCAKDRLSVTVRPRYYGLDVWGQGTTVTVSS VL: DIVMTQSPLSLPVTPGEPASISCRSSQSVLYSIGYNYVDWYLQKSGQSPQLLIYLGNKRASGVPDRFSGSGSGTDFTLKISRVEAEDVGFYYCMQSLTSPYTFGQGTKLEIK	criterion met
Construct 3 (mAb412) (antibody, IgG4, V domains shown, VH/VL only) VH: EVQLVESGGGLEQPGGSLRLSCAGSGFTFRDFAMTWVRQAPGKGLEWVSSISGSGSSTYYADSVKGRFTISRDNSKNTLYLQMNSLRAEDTAVYYCAKDRLSITVRPRYYGLDVWGQGTTVTVSS VL: DIVMTQSPLSLPVTPGEPASISCRSSQSLLYSIGYNYVDWYLQKSGQSPQLLIYLGNKRASGVPDRFSGSGSGTDFTLKISRVEAEDVGFYYCMQALTTPYTFGQGTKLEIK	criterion met
Construct 4 (mAb413) (antibody, IgG4, V domains shown, VH/VL only) VH: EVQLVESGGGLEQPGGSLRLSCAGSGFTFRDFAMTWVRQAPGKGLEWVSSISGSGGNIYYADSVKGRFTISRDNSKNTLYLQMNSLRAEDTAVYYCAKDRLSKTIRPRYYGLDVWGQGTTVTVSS VL: DIVMTQSPLSLPVTPGEPASISCTASQSLLYSIGYNYVDWYLQKSGQSPQLLIYLGNNRATGVPDRFSGSGSGTDFTLKISRVEAEDVGFYYCMQALTTPYTFGQGTKLEIK	criterion not met

Input: Is the reported KD Relative to Dupilumab for Construct 1 (mAb410) (antibody, IgG4, V domains shown, VH/VL only) VH: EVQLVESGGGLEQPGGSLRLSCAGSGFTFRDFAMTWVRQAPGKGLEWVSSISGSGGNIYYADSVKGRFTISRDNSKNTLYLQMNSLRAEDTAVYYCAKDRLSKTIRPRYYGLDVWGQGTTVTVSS VL: DIVMTQSPLSLPVTPGEPASISCRSSQSVLYSIGYNYVDWYLQKSGQSPQLLIYLGSKRASGVPDRFSGSGSGTDFTLKISRVEAEDVGFYYCMQSLDTPYTFGQGTKLEIK strictly below 1?
Output: criterion not met

Input: Is the reported KD Relative to Dupilumab for Construct 17 (mAb425) (antibody, IgG4, V domains shown, VH/VL only) VH: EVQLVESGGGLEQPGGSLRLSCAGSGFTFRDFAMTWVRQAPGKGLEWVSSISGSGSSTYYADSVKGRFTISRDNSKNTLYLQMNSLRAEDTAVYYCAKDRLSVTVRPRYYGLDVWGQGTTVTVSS VL: DIVMTQSPLSLPVTPGEPASISCTASQSLLYSIGYNYVDWYLQKSGQSPQLLIYLGSKRASGVPDRFSGSGSGTDFTLKISRVEAEDVGFYYCMQAYNSPYTFGQGTKLEIK strictly below 1?
Output: criterion not met
